assay: method code SF-AS, from DOI: 10.1002/chin.197535153
// values below are reported logP
property-measured: logP

[[record]]
smiles = "Nc1ccc(C(=O)Oc2ccccc2Br)c(O)c1"
reported_value = 3.74

[[record]]
smiles = "Nc1ccc(C(=O)O)c(O)c1"
reported_value = 0.87

[[record]]
smiles = "Nc1ccc(C(=O)Oc2ccc(Br)cc2)c(O)c1"
reported_value = 3.46

[[record]]
smiles = "Nc1ccc(OC(=O)c2ccc(N)cc2O)cc1"
reported_value = 2.04

[[record]]
smiles = "CC(C)(C)c1ccccc1OC(=O)c1ccc(N)cc1O"
reported_value = 4.21

[[record]]
smiles = "Nc1ccc(C(=O)Oc2ccccc2Cl)c(O)c1"
reported_value = 3.72

[[record]]
smiles = "Nc1ccc(C(=O)Oc2ccccc2F)c(O)c1"
reported_value = 3.29

[[record]]
smiles = "Nc1ccc(C(=O)Oc2ccccc2)c(O)c1"
reported_value = 3.15

[[record]]
smiles = "CC(C)c1ccccc1OC(=O)c1ccc(N)cc1O"
reported_value = 4.28

[[record]]
smiles = "Nc1cccc(OC(=O)c2ccc(N)cc2O)c1"
reported_value = 2.08

[[record]]
smiles = "COc1ccc(OC(=O)c2ccc(N)cc2O)cc1"
reported_value = 3.07

[[record]]
smiles = "Nc1ccc(C(=O)Oc2cccc(F)c2)c(O)c1"
reported_value = 3.42

[[record]]
smiles = "Cc1cccc(C)c1OC(=O)c1ccc(N)cc1O"
reported_value = 3.88


----------
test: method code SF-AS, from DOI: 10.1002/chin.197535153
Friendly reminder: logP below 4 is T, at or above is F.

[[record]]
smiles = "Cc1ccccc1OC(=O)c1ccc(N)cc1O"
class_name = "T"

[[record]]
smiles = "CC(C)c1ccc(OC(=O)c2ccc(N)cc2O)cc1"
class_name = "F"

[[record]]
smiles = "Nc1ccc(C(=O)Oc2cccc(Br)c2)c(O)c1"
class_name = "T"

[[record]]
smiles = "Nc1ccc(C(=O)Oc2ccc(F)cc2)c(O)c1"
class_name = "T"

[[record]]
smiles = "Cc1cccc(OC(=O)c2ccc(N)cc2O)c1"
class_name = "T"

[[record]]
smiles = "Cc1ccc(OC(=O)c2ccc(N)cc2O)cc1"
class_name = "T"

[[record]]
smiles = "Nc1ccc(C(=O)Oc2cccc(C(F)(F)F)c2)c(O)c1"
class_name = "T"

[[record]]
smiles = "Nc1ccc(C(=O)Oc2ccc(Cl)cc2Cl)c(O)c1"
class_name = "F"

[[record]]
smiles = "Nc1ccc(C(=O)Oc2ccc(Cl)cc2)c(O)c1"
class_name = "T"

[[record]]
smiles = "COc1ccccc1OC(=O)c1ccc(N)cc1O"
class_name = "T"

[[record]]
smiles = "COc1cccc(OC(=O)c2ccc(N)cc2O)c1"
class_name = "T"


Ref: the SangsterLogP compilation
